Each recorded value in this set is attributed to paper PMC7826789.

Recorded Percent Control, one value per entry.
System: ULK2
Conditions: Compound Concentration (nM):1000;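 further: KINOMEscan scanMAX binding as percent activity remaining versus control; lower means stronger binding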

# compound, tested-target, Percent Control
data = [
    ("COc1cc(C)c(N(C)C(=O)CN(C)C)cc1Nc1nc(Nc2cccc(F)c2C(N)=O)c2cc[nH]c2n1", "ULK2", "80%"),
    ("CCS(=O)(=O)c1ccc(OC)c(Nc2ncc(-c3cccc(OC)c3)o2)c1 [GW580509X]", "ULK2", "80%"),
    ("CC1=C(C(=O)Nc2ccc3[nH]ncc3c2)C(c2ccc3ccccc3c2)CC(=O)N1 (stereo not shown) [GSK270822A]", "ULK2", "79%"),
    ("NS(=O)(=O)c1ccc(N/N=C2\\C(=O)Nc3ccc(-c4cnco4)cc32)cc1", "ULK2", "82%"),
]

---

Tested on: PKN1
Details: Compound Concentration (nM):1000
observable: Percent Control (%)

# compound, observable, value
rows = [
    ("O=C(Nc1n[nH]c2nc(-c3ccc(O)cc3)c(Br)cc12)C1CC1 [SB-725317]", "Percent Control", 89),
    ("COc1cc(C)c(N(C)C(=O)CN(C)C)cc1Nc1nc(Nc2cccc(F)c2C(N)=O)c2cc[nH]c2n1 [GSK2219385]", "Percent Control", 89),
    ("Cl.c1ccc(Cc2nc3ccc(Nc4ncnc5ccccc45)cc3[nH]2)cc1 [GR269666A]", "Percent Control", 92),
]

---

Tested on: CDC2L5
Construct: gene CDK13
Settings: Compound Concentration (nM):1000
Each item that follows carries a reported Percent Control.
observable: Percent Control

# molecule, observable, value
data = [
    ("O=C1Nc2ccc(C(=O)c3ccco3)cc2C1=Cc1cc(Cl)c(O)c(Cl)c1 [GW406108X]", "Percent Control", "99%"),
    ("Cl.O=C(O[C@H]1CN[C@H](C#Cc2cc3ncnc(Nc4ccc5c(cnn5Cc5ccccc5)c4)c3s2)C1)N1CCOCC1 [GSK200398A]", "Percent Control", "97%"),
    ("COC(=O)Nc1nc2ccc(Oc3ccc(NC(=O)Nc4cc(C(F)(F)F)ccc4F)cc3)cc2s1.Cl [GW693917A]", "Percent Control", "19%"),
    ("COc1cc(C=NNc2ncnc3c2cnn3-c2ccccc2)ccc1O [GW513184X]", "Percent Control", "96%"),
    ("CCc1ccc(Oc2nccc(-c3c(-c4ccc(F)cc4)ncn3C3CCNCC3)n2)cc1", "Percent Control", "100%"),
    ("NS(=O)(=O)c1ccc(N/N=C2\\C(=O)Nc3ccc(Cl)cc32)cc1 [GW280670X]", "Percent Control", "100%"),
    ("COc1cc(C)c(N(C)C(=O)CN(C)C)cc1Nc1nc(Nc2cccc(F)c2C(N)=O)c2cc[nH]c2n1", "Percent Control", "50%"),
]

---

System: CLK2
Details: Compound Concentration (nM):1000

# compound, Percent Control
measured = [
    ("CN1CCN(C(=O)c2ccc(NC(=O)Nc3ccc(N(C)c4ccnc(Nc5ccc(CS(C)(=O)=O)cc5)n4)cc3)cc2)CC1.Cl [GW830263A]", "54%"),
    ("COc1ccc2[nH]c3c4[nH]c5ccc(OC)cc5c4c4c(c3c2c1)C(=O)NC4=O [GW296115X]", "56%"),
    ("CN(C)c1cc2c(Nc3ccc4c(cnn4Cc4ccccc4)c3)ncnc2cn1 [GW282974X]", "86%"),
    ("NS(=O)(=O)c1ccc(N/N=C2\\C(=O)Nc3ccc(C(=O)NCCc4c[nH]cn4)cc32)cc1 [GW300660X]", "5.5%"),
    ("O=C(Nc1n[nH]c2nc(-c3ccc(O)cc3)c(Br)cc12)C1CC1", "95%"),
    ("COc1ccccc1-c1cc(/C=C2\\C(=O)Nc3ncc(Br)cc32)cc(Br)c1O [GW442130X]", "67%"),
    ("COc1ccc2cc(-c3c(-c4ccncc4)nc(-c4ccc(S(C)(=O)=O)cc4C)n3C)ccc2c1", "87%"),
    ("COc1cc2ncn(-c3cc(O[C@H](C)c4ccccc4Cl)c(C(N)=O)s3)c2cc1OC [GSK237701A]", "90%"),
    ("CCn1c(-c2nonc2N)nc2c(C#CC(C)(C)O)nc(OCCNC)cc21.Cl", "87%"),
    ("CC(C)COC(=O)c1ccc2c(c1)/C(=C/Nc1ccc(S(N)(=O)=O)cc1)C(=O)N2 [GW416981X]", "2.3%"),
    ("COc1cc2ncnc(Nc3ccc4c(cnn4Cc4ccccc4)c3)c2cc1OC.Cl [GW282449A]", "100%"),
    ("CCc1ccc(Oc2nccc(-c3c(-c4ccc(F)cc4)ncn3C3CCNCC3)n2)cc1", "70%"),
    ("CCS(=O)(=O)c1ccc(OC)c(Nc2ncc(-c3cccc(F)c3)o2)c1 [GW621970X]", "12%"),
    ("NS(=O)(=O)c1ccc(N/N=C2\\C(=O)Nc3ccc(C(=O)NCc4ccncc4)cc32)cc1 [GW300657X]", "17%"),
    ("O=C1Nc2ccc(C(=O)c3ccco3)cc2C1=Cc1cc(Cl)c(O)c(Cl)c1 [GW406108X]", "0.1%"),
    ("Cl.O=C(Nc1ccc(Oc2ccc3[nH]c(NC(=O)c4ccco4)nc3c2)cc1)Nc1cc(C(F)(F)F)ccc1F [GW683134A]", "89%"),
]

---

System: MAP3K1
Conditions: Compound Concentration (nM):1000
Reported Percent Control is given for each of the following molecules.
observable: Percent Control (%)

# molecule, value
rows = [
    ("Cl.c1ccc(Cc2nc3ccc(Nc4ncnc5ccccc45)cc3[nH]2)cc1 [GR269666A]", 100),
    ("C[C@@H](Oc1cc(-n2cnc3ccc(OC4CCN(C)CC4)cc32)sc1C(N)=O)c1ccccc1Cl [GSK579289A]", 41),
    ("NS(=O)(=O)c1ccc(N/N=C2\\C(=O)Nc3ccc(-c4cnco4)cc32)cc1 [GW276655]", 100),
    ("COc1ccc2cc(-c3c(-c4ccncc4)nc(-c4ccc(S(C)(=O)=O)cc4C)n3C)ccc2c1 [SB-633825]", 60),
    ("CCn1c(-c2nonc2N)nc2c(C#CC(C)(C)O)nc(OCCNC)cc21.Cl [GSK949675]", 100),
    ("COc1cc(/C=N/Nc2ncnc3[nH]ncc23)ccc1O [GW578748X]", 49),
]

---

Test system: QSK
Construct: gene KIAA0999
Conditions: Compound Concentration (nM):1000
observable: Percent Control (%)

# compound, value
records = [
    ("CN1CCN(C(=O)c2ccc(NC(=O)Nc3ccc(N(C)c4ccnc(Nc5ccc(CS(C)(=O)=O)cc5)n4)cc3)cc2)CC1.Cl [GW830263A]", 86),
    ("Cl.O=C(Nc1ccc(Oc2ccc3[nH]c(NC(=O)c4ccco4)nc3c2)cc1)Nc1cc(C(F)(F)F)ccc1F [GW683134A]", 100),
    ("Cl.O=C(O[C@H]1CN[C@H](C#Cc2cc3ncnc(Nc4ccc5c(cnn5Cc5ccccc5)c4)c3s2)C1)N1CCOCC1 [GSK200398A]", 100),
    ("COc1ccc2[nH]c3c4[nH]c5ccc(OC)cc5c4c4c(c3c2c1)C(=O)NC4=O [GW296115X]", 56),
    ("COc1ccc2cc(-c3c(-c4ccncc4)nc(-c4ccc(S(C)(=O)=O)cc4C)n3C)ccc2c1", 79),
    ("COc1cc2ncnc(Nc3ccc4c(cnn4Cc4ccccc4)c3)c2cc1OC.Cl [GW282449A]", 100),
    ("COc1ccc(COc2ccc(Cc3cnc(N)nc3N)cc2OC)cc1 [GW632580X]", 100),
    ("CC1=C(C(=O)Nc2ccc3[nH]ncc3c2)C(c2ccc(Cl)c(Cl)c2)CC(=O)N1 (stereo not drawn) [GSK299115A]", 92),
    ("CCS(=O)(=O)c1ccc(OC)c(Nc2ncc(-c3cccc(OC)c3)o2)c1 [GW580509X]", 100),
    ("CCc1ccc(Oc2nccc(-c3c(-c4ccc(F)cc4)ncn3C3CCNCC3)n2)cc1", 85),
    ("COc1ccccc1-c1cc(/C=C2\\C(=O)Nc3ncc(Br)cc32)cc(Br)c1O [GW442130X]", 100),
    ("NS(=O)(=O)c1ccc(N/N=C2\\C(=O)Nc3ccc(C(=O)NCCc4c[nH]cn4)cc32)cc1 [GW300660X]", 89),
]

---

Tested on: MAP4K5
Details: Compound Concentration (nM):1000
Measured Percent Control of individual entries
observable: Percent Control (%)

# molecule, measurement-units, value
records = [
    ("COc1cc2ncnc(Nc3ccc4c(cnn4Cc4ccccc4)c3)c2cc1OC.Cl [GW282449A]", "%", 88),
    ("COc1ccc2cc(-c3c(-c4ccncc4)nc(-c4ccc(S(C)(=O)=O)cc4C)n3C)ccc2c1 [SB-633825]", "%", 91),
    ("COc1ccc2c(-c3ccnc(Nc4cccc(OC(F)(F)F)c4)n3)cnn2n1 [GW810372X]", "%", 100),
    ("COc1cc(N2CCN(C(C)C)CC2)ccc1Nc1nc(Nc2ccc(F)cc2C(=O)NC[C@@H](O)CO)c2cc[nH]c2n1 [GSK1392956A]", "%", 96),
    ("NS(=O)(=O)c1ccc(N/N=C2\\C(=O)Nc3ccc(Cl)cc32)cc1 [GW280670X]", "%", 100),
    ("Nc1ncnc2occ(-c3ccc(NC(=O)Nc4cc(C(F)(F)F)ccc4F)cc3)c12 [GW770249X]", "%", 11),
    ("O=C1Nc2ccc(C(=O)c3ccco3)cc2C1=Cc1cc(Cl)c(O)c(Cl)c1 [GW406108X]", "%", 99),
    ("CC(C)COC(=O)c1ccc2c(c1)/C(=C/Nc1ccc(S(N)(=O)=O)cc1)C(=O)N2 [GW416981X]", "%", 87),
    ("COc1ccc2[nH]c3c4[nH]c5ccc(OC)cc5c4c4c(c3c2c1)C(=O)NC4=O [GW296115X]", "%", 51),
]
